# TARGET OR SYSTEM: human mGlu4 receptor (Homo sapiens, UniProt Q14833)
# Construct: expressed in transfected cells; host or cells: monoclonal HEK-293 cell line, stably transfected
# Sequence (Q14833 33-912): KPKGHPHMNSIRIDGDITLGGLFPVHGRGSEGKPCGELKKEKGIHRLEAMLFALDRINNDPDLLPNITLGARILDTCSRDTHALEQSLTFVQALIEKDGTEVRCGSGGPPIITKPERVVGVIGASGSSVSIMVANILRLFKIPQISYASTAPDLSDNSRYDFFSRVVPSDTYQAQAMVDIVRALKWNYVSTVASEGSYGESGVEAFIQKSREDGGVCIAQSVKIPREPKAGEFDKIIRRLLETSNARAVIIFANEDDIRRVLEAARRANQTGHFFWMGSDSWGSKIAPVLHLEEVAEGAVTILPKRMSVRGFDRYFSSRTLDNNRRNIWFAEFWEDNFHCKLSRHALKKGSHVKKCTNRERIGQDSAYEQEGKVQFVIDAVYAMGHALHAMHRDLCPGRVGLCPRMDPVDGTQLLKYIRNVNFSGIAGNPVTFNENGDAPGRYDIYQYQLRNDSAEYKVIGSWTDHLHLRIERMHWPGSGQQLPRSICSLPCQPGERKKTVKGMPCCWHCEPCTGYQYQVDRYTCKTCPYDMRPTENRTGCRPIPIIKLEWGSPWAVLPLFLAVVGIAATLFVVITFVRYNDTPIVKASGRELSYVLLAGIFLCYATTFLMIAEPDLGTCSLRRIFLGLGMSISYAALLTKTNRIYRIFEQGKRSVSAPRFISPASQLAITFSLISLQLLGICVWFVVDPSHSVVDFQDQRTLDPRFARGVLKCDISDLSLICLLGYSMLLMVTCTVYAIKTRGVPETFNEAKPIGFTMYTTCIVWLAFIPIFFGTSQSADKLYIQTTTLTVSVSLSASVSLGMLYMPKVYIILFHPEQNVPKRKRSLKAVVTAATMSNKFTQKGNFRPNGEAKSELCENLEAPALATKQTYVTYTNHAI
# ASSAY REMARKS: Ca2+ mobilization in vitro assay on recombinant human mGlu4 expressed in HEK293 cells (PAM, L-AP4 at EC20)
# Format: cell-based
# CONDITION DESCRIPTION: HEK293 cells expressing human mGlu4; L-AP4 added at EC20
Each item that follows carries a reported EC50.

[
  {
    "COMPOUND": "CN1C(=O)N(c2c(F)cc(C#Cc3ccccc3)cc2F)C(=O)C[C@@]1(C)c1cnn(C)c1 [Example 6]",
    "TARGET OR SYSTEM": "human mGlu4 receptor (Homo sapiens, UniProt Q14833)",
    "EC50 [nM]": 36
  },
  {
    "COMPOUND": "CN1C(=O)N(c2ccc(C#Cc3ccccc3)cc2Cl)C(=O)C[C@@]1(C)c1cnn(C)c1 [Example 37]",
    "TARGET OR SYSTEM": "human mGlu4 receptor (Homo sapiens, UniProt Q14833)",
    "EC50 [nM]": 112
  },
  {
    "COMPOUND": "CN1C(=O)N(c2c(F)cc(C#Cc3ccccc3)cc2F)C(=O)C[C@@]1(C)c1ccn(CC(C)(C)O)n1 [Example 63]",
    "TARGET OR SYSTEM": "human mGlu4 receptor (Homo sapiens, UniProt Q14833)",
    "EC50 [nM]": 71
  },
  {
    "COMPOUND": "CN1C(=O)N(c2c(F)cc(C#Cc3ccccc3)cc2F)C(=O)C[C@@]1(C)c1nccs1 [Example 1]",
    "TARGET OR SYSTEM": "human mGlu4 receptor (Homo sapiens, UniProt Q14833)",
    "EC50 [nM]": 113
  }
]

====

# TARGET OR SYSTEM: human mGlu4 receptor (Homo sapiens, UniProt Q14833)
# Construct: expressed in transfected cells; host or cells: monoclonal HEK-293 cell line, stably transfected
# ASSAY REMARKS: Ca2+ mobilization in vitro assay on recombinant human mGlu4 expressed in HEK293 cells (PAM, L-AP4 at EC20)
# Assay type: cell-based
# CONDITION DESCRIPTION: HEK293; maximal response in % of the maximal stimulatory effect obtained with saturating concentrations of L-AP4; read-out: Eff. (%)

[
  {
    "COMPOUND": "Cc1nc(C2(C)CC(=O)N(c3c(F)cc(C#Cc4ccccc4)cc3F)C(=O)N2C)cs1 (racemic)",
    "UNIT INFO": "%",
    "Emax": 138
  },
  {
    "COMPOUND": "CN1C(=O)N(c2c(F)cc(C#Cc3ccccc3)cc2F)C(=O)C[C@@]1(C)c1cnco1",
    "UNIT INFO": "%",
    "Emax": 195
  },
  {
    "COMPOUND": "CN1C(=O)N(c2c(F)cc(C#Cc3ccccc3)cc2F)C(=O)C[C@@]1(C)c1cn(C)nn1",
    "UNIT INFO": "%",
    "Emax": 207
  },
  {
    "COMPOUND": "CN1C(=O)N(c2c(F)cc(C#Cc3ccccc3)cc2F)C(=O)C[C@@]1(C)c1cnn(CCO)c1",
    "UNIT INFO": "%",
    "Emax": 147
  },
  {
    "COMPOUND": "CN1C(=O)N(c2c(F)cc(C#Cc3cccnc3)cc2F)C(=O)C[C@@]1(C)c1cn[nH]c1",
    "UNIT INFO": "%",
    "Emax": 164
  },
  {
    "COMPOUND": "CCn1ccc([C@]2(C)CC(=O)N(c3c(F)cc(C#Cc4ccccc4)cc3F)C(=O)N2C)n1",
    "UNIT INFO": "%",
    "Emax": 139
  },
  {
    "COMPOUND": "CN1C(=O)N(c2c(F)cc(C#Cc3ccccc3)cc2F)C(=O)C[C@@]1(C)c1cnn(C)n1",
    "UNIT INFO": "%",
    "Emax": 196
  },
  {
    "COMPOUND": "CN1C(=O)N(c2c(F)cc(C#Cc3cccnc3)cc2F)C(=O)C[C@@]1(C)c1cnn(C)c1",
    "UNIT INFO": "%",
    "Emax": 141
  }
]

====

# TARGET OR SYSTEM: human mGlu4 receptor (Homo sapiens, UniProt Q14833)
# Construct: expressed in transfected cells; host or cells: monoclonal HEK-293 cell line, stably transfected
# ASSAY REMARKS: Ca2+ mobilization in vitro assay on recombinant human mGlu4 expressed in HEK293 cells (PAM, L-AP4 at EC20)
# Assay type: cell-based
# CONDITION DESCRIPTION: HEK293 cells expressing human mGlu4; L-AP4 added at EC20
Each item that follows carries a reported EC50.

[
  {
    "ENTRY SMILES": "COCCn1cc([C@]2(C)CC(=O)N(c3c(F)cc(C#Cc4ccccc4)cc3F)C(=O)N2C)cn1",
    "EC50 (nM)": 54
  },
  {
    "ENTRY SMILES": "CN1C(=O)N(c2c(F)cc(C#Cc3ccccc3)cc2F)C(=O)C[C@@]1(C)c1ccno1",
    "EC50 (nM)": 123
  },
  {
    "ENTRY SMILES": "CN1C(=O)N(c2c(F)cc(C#Cc3ccccc3)cc2F)C(=O)C[C@@]1(C)c1ccnn1C",
    "EC50 (nM)": 147
  },
  {
    "ENTRY SMILES": "CN1C(=O)N(c2c(F)cc(C#Cc3ccccc3)cc2F)C(=O)C[C@@]1(C)c1cn(C)cn1",
    "EC50 (nM)": 121
  }
]

====

Each item that follows carries a reported Emax.
# TARGET OR SYSTEM: human mGlu4 receptor (Homo sapiens, UniProt Q14833)
# Construct: expressed in transfected cells; host or cells: monoclonal HEK-293 cell line, stably transfected
# ASSAY REMARKS: Ca2+ mobilization in vitro assay on recombinant human mGlu4 expressed in HEK293 cells (PAM, L-AP4 at EC20)
# Type: cell-based
# CONDITION DESCRIPTION: HEK293; maximal response in % of the maximal stimulatory effect obtained with saturating concentrations of L-AP4; read-out: Eff. (%)

[
  {
    "ENTRY SMILES": "CN1C(=O)N(c2c(F)cc(C#Cc3ccccc3)cc2F)C(=O)C[C@@]1(C)c1cncn1C",
    "UNIT INFO": "%",
    "Emax": 91
  },
  {
    "ENTRY SMILES": "CN1C(=O)N(c2c(F)cc(C#Cc3ccccc3F)cc2F)C(=O)C[C@@]1(C)c1cnn(C)c1",
    "UNIT INFO": "%",
    "Emax": 147
  },
  {
    "ENTRY SMILES": "CN1C(=O)N(c2c(F)cc(C#Cc3ccccc3)cc2F)C(=O)C[C@@]1(C)c1ccon1",
    "UNIT INFO": "%",
    "Emax": 142
  },
  {
    "ENTRY SMILES": "CN1C(=O)N(c2c(F)cc(C#Cc3ccccc3)cc2F)C(=O)C[C@@]1(C)c1cnn2ccccc12",
    "UNIT INFO": "%",
    "Emax": 137
  },
  {
    "ENTRY SMILES": "CN1C(=O)N(c2c(F)cc(C#Cc3ccccc3)cc2F)C(=O)C[C@@]1(C)c1ccns1",
    "UNIT INFO": "%",
    "Emax": 151
  },
  {
    "ENTRY SMILES": "CC[C@@]1(c2ccn(C)n2)CC(=O)N(c2c(F)cc(C#Cc3ccccc3)cc2F)C(=O)N1C",
    "UNIT INFO": "%",
    "Emax": 143
  },
  {
    "ENTRY SMILES": "COCCCn1ccc([C@]2(C)CC(=O)N(c3c(F)cc(C#Cc4ccccc4)cc3F)C(=O)N2C)n1",
    "UNIT INFO": "%",
    "Emax": 117
  },
  {
    "ENTRY SMILES": "CN1C(=O)N(c2c(F)cc(C#Cc3ccccc3)cc2F)C(=O)C[C@@]1(C)c1cnn(C2CC2)c1",
    "UNIT INFO": "%",
    "Emax": 127
  }
]

====

# TARGET OR SYSTEM: human mGlu4 receptor (Homo sapiens)
# Construct: expressed in transfected cells; host or cells: monoclonal HEK-293 cell line, stably transfected
# ASSAY REMARKS: Ca2+ mobilization in vitro assay on recombinant human mGlu4 expressed in HEK293 cells (PAM, L-AP4 at EC20)
# Format: cell-based
# CONDITION DESCRIPTION: HEK293; maximal response in % of the maximal stimulatory effect obtained with saturating concentrations of L-AP4; read-out: Eff. (%)

[
  {
    "MOLECULE": "Cc1ncc([C@]2(C)CC(=O)N(c3c(F)cc(C#Cc4ccccc4)cc3F)C(=O)N2C)s1",
    "Emax, %": 148
  },
  {
    "MOLECULE": "CN1C(=O)N(c2c(F)cc(C#Cc3ccccc3)cc2F)C(=O)C[C@@]1(C)c1cn(C)cn1",
    "Emax, %": 109
  },
  {
    "MOLECULE": "CN1C(=O)N(c2c(F)cc(C#Cc3ccccc3)cc2F)C(=O)C[C@@]1(C)c1cnn(C2CCOC2)c1 (mixture of isomers)",
    "Emax, %": 128
  },
  {
    "MOLECULE": "CN1C(=O)N(c2c(F)cc(C#Cc3ccccc3)cc2F)C(=O)C[C@@]1(C)c1cnn(CC(C)(C)O)c1",
    "Emax, %": 142
  },
  {
    "MOLECULE": "CN1C(=O)N(c2c(F)cc(C#Cc3ccc(F)cc3F)cc2F)C(=O)C[C@@]1(C)c1cn[nH]c1",
    "Emax, %": 143
  },
  {
    "MOLECULE": "CN1C(=O)N(c2c(F)cc(C#Cc3ccccc3)cc2Cl)C(=O)C[C@@]1(C)c1cnn(C)c1",
    "Emax, %": 153
  },
  {
    "MOLECULE": "CN1C(=O)N(c2c(F)cc(C#Cc3cccc(F)c3F)cc2F)C(=O)C[C@@]1(C)c1cn[nH]c1",
    "Emax, %": 134
  }
]
